Assay overview: qHTS of pediatric cancer cell lines to identify multiple opportunities for drug repurposing: Primary screen for DAOY cells (AID 1347090); also: nearly all actives have a fitted effect of over 55% in size
Assay context: DAOY medulloblastoma viability, CellTiter-Glo luminescence, 48 h; series mostly up to 46 µM
Inconclusive results are not listed. Calls of active or inactive are those of the source. Calls follow the shape of the dose curve; as a rule, active = well fitted cell-killing curve with a large enough effect; inconclusive = small, poorly fitted or top-dose-only effect; inactive = flat fitted curve, though single readings scatter.
A correct response names exactly one class from active, inactive

Example cases with answers are listed next.
>  <Item smiles>
CNC(=O)c1ccc(Nc2cc(Nc3ccccc3S(=O)(=O)C(C)C)c3cc[nH]c3n2)nc1

>  <Assigned class>
active

$$$$
>  <Item smiles>
O=C(c1ccc(F)cc1)N1CCC[C@H](c2nc(-c3ccc(F)cc3)no2)C1

>  <Assigned class>
inactive

$$$$
>  <Item smiles>
OCCN1C[C@H](O)[C@@H](O)[C@H](O)[C@@H]1CO

>  <Assigned class>
inactive

$$$$
>  <Item smiles>
Cc1cc(C(=O)NOCCO)c(Nc2ccc(I)cc2F)n(C)c1=O

>  <Assigned class>
inactive

$$$$

Consider the additional compound presented here.
Qu. Dear all, I need the recorded test outcome for COc1ccc2cc([S+]([O-])Cc3ncc(C)c(OC)c3C)nc2c1 , thank you.
Ans. inactive

---

System: PC26
Assay overview: qHTS profiling for inhibitors of Plasmodium falciparum proliferation (AID 504749); also: nearly all actives have a fitted effect of over 60% in size
Assay context: P. falciparum in erythrocytes, SYBR Green DNA, 72 h; series mostly up to 28.7 µM
Results filed as inconclusive are left out. Calls of active or inactive are those of the source. The call rests on the fitted dose curve; in most records, active means well fitted inhibition curve with a large enough effect; inconclusive means small, poorly fitted or top-dose-only effect; inactive means flat fitted curve, though single readings scatter.
API: response.call in label 1 = active, label 0 = inactive

Qu. Call for entry COc1ccc([C@@H]2CNC(=O)C2)cc1OC1CCCC1 :
Ans. label 0

Qu. Hi team, can someone confirm the assay call for OCC(O)C(O)C(O)CO (centres undefined) ?
Ans. label 0

Qu. Called result for CCC(C(=O)O)C1CCC(C)C(C(C)C(O)C(C)C(=O)C(CC)C2OC3(C=CC(O)[C@@]4(CC[C@](C)(C5CC[C@@](O)(CC)C(C)O5)O4)O3)C(C)CC2C)O1 (some centres undefined)
Ans. label 1

Qu. Which outcome was entered for the compound COc1ccc2c(c1OC)C(=O)OC2[C@H]1c2c(cc3c(c2OC)OCO3)CCN1C (some centres undefined) in this test?
Ans. label 0

---

Assay overview: qHTS of pediatric cancer cell lines to identify multiple opportunities for drug repurposing: Primary screen for DAOY cells (AID 1347090); also: nearly all actives have a fitted effect of over 55% in size
Assay context: DAOY medulloblastoma viability, CellTiter-Glo luminescence, 48 h; series mostly up to 46 µM
Results filed as inconclusive are left out. Calls of active or inactive are those of the source. Calls follow the shape of the dose curve; as a rule, active = well fitted cell-killing curve with a large enough effect; inconclusive = small, poorly fitted or top-dose-only effect; inactive = flat fitted curve, though single readings scatter.
The reply should name one outcome from yes = active, no = inactive

>  <Compound>
CCCCC(=O)O[C@]1(C(=O)CO)[C@@H](C)C[C@H]2[C@@H]3CCC4=CC(=O)C=C[C@]4(C)[C@@]3(F)[C@@H](O)C[C@@]21C

>  <Assigned class>
no

$$$$
>  <Compound>
OC[C@H]1OC(O)C[C@@H](O)[C@H]1O (some centres not stated)

>  <Assigned class>
no

$$$$
>  <Compound>
CC(=O)C1=C(O)C=C2Oc3c(C(C)=O)c(O)c(C)c(O)c3C2(C)C1=O (configuration not stated)

>  <Assigned class>
no

$$$$
>  <Compound>
CS[C@H]1SC[C@@H]2C(=O)N(C)[C@H](C(C)C)C(=O)OC[C@H](NC(=O)c3cnc4ccccc4n3)C(=O)N[C@H](C)C(=O)N(C)[C@@H]1C(=O)N(C)[C@H](C(C)C)C(=O)OC[C@H](NC(=O)c1cnc3ccccc3n1)C(=O)N[C@H](C)C(=O)N2C

>  <Assigned class>
yes

$$$$
>  <Compound>
COc1cc([C@@H]2c3cc4c(cc3[C@H](O)[C@H]3COC(=O)[C@@H]23)OCO4)cc(OC)c1OC

>  <Assigned class>
yes

$$$$

Qu. State the result this test recorded for O=C(C[C@@H]1CC=CCCC(=O)O[C@H](c2ccccc2)CNC1=O)NCc1ccc(Cl)cc1 .
Ans. no

Qu. // return assay outcome for O=C(O)[C@H](CC(=O)N1C[C@@H]2CCCC[C@H]2C1)Cc1ccccc1
Ans. no

---

Assay overview: qHTS of pediatric cancer cell lines to identify multiple opportunities for drug repurposing: Primary screen for A673 cells (AID 1347092); also: nearly all actives have a fitted effect of over 45% in size
Assay context: A673 Ewing sarcoma viability, CellTiter-Glo ATP luminescence, 48 h; series mostly up to 46 µM
Inconclusive results are not listed. Active and inactive are the calls of the source. Calls come from the whole dose curve; as a rule, active = well fitted cell-killing curve with a large enough effect; inconclusive = small, poorly fitted or top-dose-only effect; inactive = no such curve, though single readings can be large or run the other way.
Outcome field: choose from true = active, false = inactive

>  <Item smiles>
CNC(=O)c1cccc(-c2ccc3c(N4CCOC[C@H]4C)nc(N4CCOC[C@H]4C)nc3n2)c1

>  <Assigned class>
true

$$$$
>  <Item smiles>
NC(=O)N1CCC(CC(=O)N2CCC([C@H]3c4ncc(Br)cc4CCc4cc(Cl)cc(Br)c43)CC2)CC1

>  <Assigned class>
true

$$$$
>  <Item smiles>
CCCc1nc(C(C)(C)O)c(C(=O)O)n1Cc1ccc(-c2ccccc2-c2nn[nH]n2)cc1

>  <Assigned class>
false

$$$$
>  <Item smiles>
COc1ccc(C[C@@H](C)[C@@H](C)Cc2ccc(OC)c(OC)c2)cc1OC

>  <Assigned class>
true

$$$$
>  <Item smiles>
CC(C)(O)[C@H]1CC[C@@](C)([C@H]2[C@@H](O)C[C@@]3(C)[C@@H]4C[C@H](O[C@@H]5O[C@H](CO)[C@@H](O)[C@H](O)[C@@H]5O)[C@H]5C(C)(C)[C@@H](O[C@@H]6OC[C@@H](O)[C@H](O)[C@@H]6O)CC[C@@]56C[C@@]46CC[C@]23C)O1

>  <Assigned class>
false

$$$$
>  <Item smiles>
NC1=N[C@H]2[C@H](CS[C@H]2CCCCC(=O)O)N1

>  <Assigned class>
false

$$$$
>  <Item smiles>
O=C(C[C@@H]1CC=CCCC(=O)O[C@H](c2ccccc2)CNC1=O)NCc1ccc(Cl)cc1

>  <Assigned class>
false

$$$$
>  <Item smiles>
C=C1C(=O)O[C@H]2[C@@H]1CCC(C)=CCC[C@@]1(C)O[C@@H]21

>  <Assigned class>
true

$$$$

Next up:
Qu. Could you kindly confirm the outcome this assay logged for CC1(C)O[C@@H]2C[C@H]3[C@@H]4CCC5=CC(=O)C=C[C@]5(C)[C@@H]4[C@@H](O)C[C@]3(C)[C@]2(C(=O)CO)O1 ?
Ans. false

---

Assay overview: qHTS profiling of the MIPE4 collection as inhibitors of Plasmodium falciparum (HB3) proliferation (AID 743347);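 also: plate controls were DMSO vehicle wells for no effect and artemisinin wells for full effect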
Assay context: P. falciparum HB3 in erythrocytes, SYBR Green DNA, 72 h; at 28.5 µM (top of the series) unless noted
Description: Plasmodium falciparum is a virulent malarial parasite that kills 1-2 million people worldwide each year. […] Because mature erythrocytes lack DNA, only Plasmodium-derived DNA is detected. The SYBR Green viability assay was adapted from a method described previously (Plouffe et al., 2008). […] The following morning, fluorescence intensity at 485(14) nm excitation and 535(25) nm emission wavelengths was measured on an EnVision (Perkin Elmer) plate reader. […]
Experimental readout: growth, % of control (%)
One number for each entry, in %.

>  <Item smiles>
COc1cc2c(cc1OC)[C@@H]1C(=O)c3ccc4c(c3O[C@@H]1CO2)C=CC(C)(C)O4

>  <Readout value>
47.7

$$$$

Turning now to a further record.
For record C=CC[C@@H]1C=C(C)C[C@H](C)C[C@H](OC)[C@H]2O[C@@](O)(C(=O)C(=O)N3CCCC[C@H]3C(=O)O[C@H](C(C)=C[C@@H]3CC[C@H](O)[C@H](OC)C3)[C@@H](C)[C@@H](O)CC1=O)[C@@H](C)C[C@@H]2OC the listed growth, % of control is 44.7

---

Assay overview: qHTS of pediatric cancer cell lines to identify multiple opportunities for drug repurposing: Primary screen for MG 63 (6-TG R) cells (AID 1347105); also: nearly all actives have a fitted effect of over 50% in size; also: potency is read from the fitted curve at half-maximal effect
Assay context: MG 63 (6-TG R) viability, CellTiter-Glo, 48 h; series mostly up to 46 µM
Records with an inconclusive call do not appear. Activity calls are given as the source filed them. Calls follow the shape of the dose curve; as a rule, active = well fitted cell-killing curve with a large enough effect; inconclusive = small, poorly fitted or top-dose-only effect; inactive = no such curve, though single readings can be large or run the other way.
Experimental readout: Potency

Study these solved cases before continuing.
>  <Compound>
O=C(Nc1ccc(Oc2ccnc3[nH]ccc23)c(F)c1)c1cccn(-c2ccc(F)cc2)c1=O

>  <Potency>
inactive

$$$$
>  <Compound>
C=Cc1c(C)c2cc3nc(cc4[nH]c(cc5nc(cc1[nH]2)C(C)=C5CCC(=O)O)c(CCC(=O)OC)c4C)[C@@]1(C)C3=CC=C(C(=O)OC)[C@H]1C(=O)OC

>  <Potency>
1.18 µM (active)

$$$$
>  <Compound>
CC(C)NC[C@@H](C(=O)N1CCN(c2ncnc3c2[C@H](C)C[C@H]3O)CC1)c1ccc(Cl)cc1

>  <Potency>
3.72 µM (active)

$$$$
>  <Compound>
Cc1onc(-c2ccccc2)c1C(=O)N[C@@H]1C(=O)N2[C@@H](C(=O)O)C(C)(C)S[C@@H]12

>  <Potency>
inactive

$$$$
>  <Compound>
COc1ccc(C(C)=O)c(O)c1

>  <Potency>
inactive

$$$$

Provide Potency values for the following items, in order.
1. COc1ccc(Nc2nccc(NCCO)n2)cc1
2. NC(=NCCCCCCN=C(N)N=C(N)Nc1ccc(Cl)cc1)N=C(N)Nc1ccc(Cl)cc1

Ans.
["inactive", "14.8 µM (active)"]
